relative viability: recorded values
# Test system: NCI-H661
# TEST_PROTOCOL: relative viability (nuclei count vs DMSO), 5 days (fraction); higher = more cells survive
# ASSAY_SETUP: first compound 0.0002 µM
Just the number, please.

[[record]]
compound = "CC(=O)O[C@@]12CO[C@@H]1C[C@H](O)[C@@]1(C)C(=O)[C@H](O)C3=C(C)[C@@H](OC(=O)[C@H](O)[C@@H](NC(=O)OC(C)(C)C)c4ccccc4)C[C@@](O)([C@@H](OC(=O)c4ccccc4)[C@H]21)C3(C)C [Docetaxel] + Cc1nc(Nc2ncc(C(=O)Nc3c(C)cccc3Cl)s2)cc(N2CCN(CCO)CC2)n1 [Dasatinib] (partner 0.075 µM)"
assay_target = "NCI-H661"
quantitative_readout = 0.836

[[record]]
compound = "CC(=O)O[C@@]12CO[C@@H]1C[C@H](O)[C@@]1(C)C(=O)[C@H](O)C3=C(C)[C@@H](OC(=O)[C@H](O)[C@@H](NC(=O)OC(C)(C)C)c4ccccc4)C[C@@](O)([C@@H](OC(=O)c4ccccc4)[C@H]21)C3(C)C [Docetaxel] + CS(=O)(=O)CCNCc1ccc(-c2ccc3ncnc(Nc4ccc(OCc5cccc(F)c5)c(Cl)c4)c3c2)o1 [Lapatinib] (partner 2 µM)"
assay_target = "NCI-H661"
quantitative_readout = 0.495

[[record]]
compound = "CC(=O)O[C@@]12CO[C@@H]1C[C@H](O)[C@@]1(C)C(=O)[C@H](O)C3=C(C)[C@@H](OC(=O)[C@H](O)[C@@H](NC(=O)OC(C)(C)C)c4ccccc4)C[C@@](O)([C@@H](OC(=O)c4ccccc4)[C@H]21)C3(C)C [Docetaxel] + COc1cc2c(Oc3ccc(NC(=O)C4(C(=O)Nc5ccc(F)cc5)CC4)cc3F)ccnc2cc1OCCCN1CCOCC1 [Foretinib] (partner 0.25 µM)"
assay_target = "NCI-H661"
quantitative_readout = 0.989


Given item CC(=O)O[C@@]12CO[C@@H]1C[C@H](O)[C@@]1(C)C(=O)[C@H](O)C3=C(C)[C@@H](OC(=O)[C@H](O)[C@@H](NC(=O)OC(C)(C)C)c4ccccc4)C[C@@](O)([C@@H](OC(=O)c4ccccc4)[C@H]21)C3(C)C [Docetaxel] + Nc1ncn([C@H]2C[C@H](O)[C@@H](CO)O2)c(=O)n1 [Decitabine] (partner 2 µM) , the value recorded as its relative viability is 0.519

###

relative viability: recorded values
# Tested on: HCC-827
# TEST_PROTOCOL: relative viability (nuclei count vs DMSO), 5 days (fraction); higher = more cells survive
# ASSAY_SETUP: first compound 0.4 µM

[[record]]
molecule = "Cc1sc2c(c1C)C(c1ccc(Cl)cc1)=N[C@@H](CC(=O)OC(C)(C)C)c1nnc(C)n1-2 [JQ1] + Cc1cc(Nc2cc(N3CCN(C)CC3)nc(Sc3ccc(NC(=O)C4CC4)cc3)n2)n[nH]1 [Tozasertib] (partner 0.1 µM)"
assay_target = "HCC-827"
result = 0.328

[[record]]
molecule = "Cc1sc2c(c1C)C(c1ccc(Cl)cc1)=N[C@@H](CC(=O)OC(C)(C)C)c1nnc(C)n1-2 [JQ1] + Cc1nc(NC(=O)N2CCC[C@H]2C(N)=O)sc1-c1ccnc(C(C)(C)C(F)(F)F)c1 [Alpelisib] (partner 2 µM)"
assay_target = "HCC-827"
result = 0.672

[[record]]
molecule = "Cc1sc2c(c1C)C(c1ccc(Cl)cc1)=N[C@@H](CC(=O)OC(C)(C)C)c1nnc(C)n1-2 [JQ1] + Cc1nc(Nc2ncc(C(=O)Nc3c(C)cccc3Cl)s2)cc(N2CCN(CCO)CC2)n1 [Dasatinib] (partner 0.075 µM)"
assay_target = "HCC-827"
result = 0.227

[[record]]
molecule = "Cc1sc2c(c1C)C(c1ccc(Cl)cc1)=N[C@@H](CC(=O)OC(C)(C)C)c1nnc(C)n1-2 [JQ1] + N=C(N)NC(=N)NCCc1ccccc1 [Phenformin] (partner 250 µM)"
assay_target = "HCC-827"
result = 0.349


Given item Cc1sc2c(c1C)C(c1ccc(Cl)cc1)=N[C@@H](CC(=O)OC(C)(C)C)c1nnc(C)n1-2 [JQ1] + CS(=O)(=O)CCNCc1ccc(-c2ccc3ncnc(Nc4ccc(OCc5cccc(F)c5)c(Cl)c4)c3c2)o1 [Lapatinib] (partner 2 µM) , the value recorded as its relative viability is 0.21

Given item Cc1sc2c(c1C)C(c1ccc(Cl)cc1)=N[C@@H](CC(=O)OC(C)(C)C)c1nnc(C)n1-2 [JQ1] + CC(C)C[C@H](NC(=O)[C@H](Cc1ccccc1)NC(=O)c1cnccn1)B(O)O [Bortezomib] (partner 0.002 µM) , the value recorded as its relative viability is 0.743

###

relative viability: recorded values
# System: NCI-H727
# TEST_PROTOCOL: relative viability (nuclei count vs DMSO), 5 days (fraction); higher = more cells survive
# ASSAY_SETUP: first compound 0.0002 µM
Just the number, please.

Here is how some compounds turned out for relative viability.
[[record]]
compound = "CC(=O)O[C@@]12CO[C@@H]1C[C@H](O)[C@@]1(C)C(=O)[C@H](O)C3=C(C)[C@@H](OC(=O)[C@H](O)[C@@H](NC(=O)OC(C)(C)C)c4ccccc4)C[C@@](O)([C@@H](OC(=O)c4ccccc4)[C@H]21)C3(C)C [Docetaxel] + CC(=O)c1c(C)c2cnc(Nc3ccc(N4CCNCC4)cn3)nc2n(C2CCCC2)c1=O [Palbociclib] (partner 0.5 µM)"
assay_target = "NCI-H727"
quantitative_readout = 0.618

[[record]]
compound = "CC(=O)O[C@@]12CO[C@@H]1C[C@H](O)[C@@]1(C)C(=O)[C@H](O)C3=C(C)[C@@H](OC(=O)[C@H](O)[C@@H](NC(=O)OC(C)(C)C)c4ccccc4)C[C@@](O)([C@@H](OC(=O)c4ccccc4)[C@H]21)C3(C)C [Docetaxel] + CS(=O)(=O)CCNCc1ccc(-c2ccc3ncnc(Nc4ccc(OCc5cccc(F)c5)c(Cl)c4)c3c2)o1 [Lapatinib] (partner 2 µM)"
assay_target = "NCI-H727"
quantitative_readout = 0.854


Proceed to the following item.
Given item CC(=O)O[C@@]12CO[C@@H]1C[C@H](O)[C@@]1(C)C(=O)[C@H](O)C3=C(C)[C@@H](OC(=O)[C@H](O)[C@@H](NC(=O)OC(C)(C)C)c4ccccc4)C[C@@](O)([C@@H](OC(=O)c4ccccc4)[C@H]21)C3(C)C [Docetaxel] + CC1(C)CCC(c2ccc(Cl)cc2)=C(CN2CCN(c3ccc(C(=O)NS(=O)(=O)c4ccc(N[C@H](CCN5CCOCC5)CSc5ccccc5)c(S(=O)(=O)C(F)(F)F)c4)cc3)CC2)C1 [Navitoclax] (partner 0.5 µM) , the value recorded as its relative viability is 0.488

###

# Tested on: CAL-12T
# TEST_PROTOCOL: relative viability (nuclei count vs DMSO), 5 days (fraction); higher = more cells survive
# ASSAY_SETUP: first compound 0.08 µM
OBSERVABLE: relative viability
Just the number, please.

Given item O=c1[nH]c2ccccc2n1C1CCN(CCCC(c2ccc(F)cc2)c2ccc(F)cc2)CC1 [Pimozide] + COc1cc2c(Oc3ccc(NC(=O)C4(C(=O)Nc5ccc(F)cc5)CC4)cc3F)ccnc2cc1OCCCN1CCOCC1 [Foretinib] (partner 0.25 µM) , the value recorded as its relative viability is 0.979

Given item O=c1[nH]c2ccccc2n1C1CCN(CCCC(c2ccc(F)cc2)c2ccc(F)cc2)CC1 [Pimozide] + CS(=O)(=O)CCNCc1ccc(-c2ccc3ncnc(Nc4ccc(OCc5cccc(F)c5)c(Cl)c4)c3c2)o1 [Lapatinib] (partner 2 µM) , the value recorded as its relative viability is 0.57

Given item Cc1cnc(-c2cnc(NCCNc3ccc(C#N)cn3)nc2-c2ccc(Cl)cc2Cl)[nH]1 + COc1cc2c(Oc3ccc(NC(=O)C4(C(=O)Nc5ccc(F)cc5)CC4)cc3F)ccnc2cc1OCCCN1CCOCC1 [Foretinib] (partner 0.25 µM) , the value recorded as its relative viability is 1.07

###

relative viability: recorded values
# Tested on: NCI-H1563
# TEST_PROTOCOL: relative viability (nuclei count vs DMSO), 5 days (fraction); higher = more cells survive
# ASSAY_SETUP: first compound 8 µM
Just the number, please.

[[record]]
compound = "O=c1[nH]c2ccccc2n1C1CCN(CCCC(c2ccc(F)cc2)c2ccc(F)cc2)CC1 [Pimozide] + COc1cccc2cc(-c3nc([C@H]4CC[C@H](C(=O)O)CC4)n4ncnc(N)c34)[nH]c12 [OSI-027] (partner 0.5 µM)"
quantitative_readout = 0.719


Proceed to the following item.
Given item O=c1[nH]c2ccccc2n1C1CCN(CCCC(c2ccc(F)cc2)c2ccc(F)cc2)CC1 [Pimozide] + CS(=O)(=O)N1CCN(Cc2cc3nc(-c4cccc5[nH]ncc45)nc(N4CCOCC4)c3s2)CC1 [Pictilisib] (partner 1 µM) , the value recorded as its relative viability is 0.637
